Target protein (sequence): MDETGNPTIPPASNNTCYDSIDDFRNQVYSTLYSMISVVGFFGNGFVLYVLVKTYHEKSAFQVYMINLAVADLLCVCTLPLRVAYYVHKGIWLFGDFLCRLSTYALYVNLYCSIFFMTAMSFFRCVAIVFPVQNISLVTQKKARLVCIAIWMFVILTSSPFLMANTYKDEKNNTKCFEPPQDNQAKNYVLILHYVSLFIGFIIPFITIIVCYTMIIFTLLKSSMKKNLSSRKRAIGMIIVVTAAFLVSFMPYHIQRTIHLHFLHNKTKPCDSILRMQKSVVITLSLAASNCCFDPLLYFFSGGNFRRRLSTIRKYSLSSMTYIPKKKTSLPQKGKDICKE
compounds and their reported pIC50
Please note pIC50 is a logarithmic value: minus log10 of concentration in mol/L. Answer with that number alone.

Take a look at these entries with their results.
[
  {
    "compound": "Clc1cccc2sc(SC3CCCc4cccnc43)nc12 (stereo not drawn)",
    "pIC50": 4.48
  },
  {
    "compound": "Cc1ccc2nc(SC3CCCc4cccnc43)sc2c1 (stereo not drawn)",
    "pIC50": 5.02
  },
  {
    "compound": "FC(F)(F)c1ccc2sc(SC3CCCc4cccnc43)nc2c1 (stereo not drawn)",
    "pIC50": 4.74
  },
  {
    "compound": "Cc1ccc2nc(SC3CCCc4cccnc43)[nH]c2c1 (stereo not drawn)",
    "pIC50": 4.13
  }
]

Asked: I'd like to know its pIC50. The compound in question is Cc1cccc2sc(SC3CCCc4cccnc43)nc12 (stereo not drawn)
Given back: 4.85

====

system_name: 5-lipoxygenase (Rattus norvegicus, UniProt P12527)
Sequence (P12527 whole entry): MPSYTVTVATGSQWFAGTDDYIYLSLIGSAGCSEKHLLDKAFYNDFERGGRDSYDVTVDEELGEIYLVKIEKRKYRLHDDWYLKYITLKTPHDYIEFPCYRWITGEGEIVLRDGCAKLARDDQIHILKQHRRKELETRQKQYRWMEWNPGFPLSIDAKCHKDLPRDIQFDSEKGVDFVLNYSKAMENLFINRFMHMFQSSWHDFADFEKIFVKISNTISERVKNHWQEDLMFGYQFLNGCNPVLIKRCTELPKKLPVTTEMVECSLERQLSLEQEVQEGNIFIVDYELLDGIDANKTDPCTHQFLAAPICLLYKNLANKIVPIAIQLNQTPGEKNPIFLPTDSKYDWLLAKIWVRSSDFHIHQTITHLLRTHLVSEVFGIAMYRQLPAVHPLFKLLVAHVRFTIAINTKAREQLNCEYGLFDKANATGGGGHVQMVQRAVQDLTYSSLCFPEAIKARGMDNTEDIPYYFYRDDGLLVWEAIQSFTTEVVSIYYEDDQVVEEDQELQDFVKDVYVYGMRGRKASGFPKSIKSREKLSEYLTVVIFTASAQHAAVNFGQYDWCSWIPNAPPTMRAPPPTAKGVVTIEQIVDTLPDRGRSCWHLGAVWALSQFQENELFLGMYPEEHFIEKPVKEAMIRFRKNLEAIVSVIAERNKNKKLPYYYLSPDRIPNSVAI
assay_summary: 5-LIPOX: inhibition of Ca++ ionophore (A23187) induced release of 5-lipoxygenase products (leukotriene B4 and 5-HETE) from [14C]arachidonic acid pre-labelled rat peritoneal neutrophils
assay_setup: A23187-induced release of leukotriene B4 and 5-HETE, graphically from dose-response curves, read-out: 5-LIPOX (concentration of test compound causing 50% inhibition of control response)
Excerpt: Inhibition of the Ca^++ ionophore (A23187) induced release of 5-lipoxygenase products, leukotriene B4 and 5-HETE, from [^14 C]arachidonic acid pre-labelled rat peritoneal neutrophils. Assayed by a modification of the method reported by Ahnfelt-Ronne et al [Biochemical Pharmacology, Vol. 31, No. 16, pp 2619-2624 (1982)]. Data presented in Table II are micromolar concentrations of test compound causing 50% inhibition of control response determined graphically from dose-response curves.
compounds and their reported IC50

Take a look at these entries with their results.
[
  {
    "compound": "Cn1ccnc1SC1CCCc2cccnc21 (stereo not drawn) [Example 26]",
    "recorded_value": "> 100000 nM"
  },
  {
    "compound": "Cc1ccc2sc(SC3CCCc4cccnc43)nc2c1 (stereo not drawn) [Example 17]",
    "recorded_value": "1500 nM"
  },
  {
    "compound": "Clc1cc(Cl)c2nc(SC3CCCc4cccnc43)sc2c1 (stereo not drawn) [Example 22]",
    "recorded_value": "22000 nM"
  },
  {
    "compound": "COC(=O)Cc1ccc2oc(SC3CCCc4cccnc43)nc2c1 (stereo not drawn) [Example 10]",
    "recorded_value": "14100 nM"
  },
  {
    "compound": "Cc1ccc2nc(SC3CCCc4cccnc43)sc2c1 (stereo not drawn) [Example 15]",
    "recorded_value": "2300 nM"
  }
]

Next, consider the following compound.
Asked: I'd like to know its IC50. The compound in question is Clc1ccc2sc(SC3CCCc4cccnc43)nc2c1 (stereo not drawn) [Example 11]
Given back: 1500 nM

====

system_name: 5-lipoxygenase (Rattus norvegicus)
assay_summary: 5-LIPOX: inhibition of Ca++ ionophore (A23187) induced release of 5-lipoxygenase products (leukotriene B4 and 5-HETE) from [14C]arachidonic acid pre-labelled rat peritoneal neutrophils
assay_setup: A23187-induced release of leukotriene B4 and 5-HETE, graphically from dose-response curves, read-out: 5-LIPOX (concentration of test compound causing 50% inhibition of control response)
Criterion: IC50 strictly under 3 µM. Met: Fulfilled. Not met: Not fulfilled.

Study these solved cases before continuing.
[
  {
    "compound": "Cc1cccc2sc(SC3CCCc4cccnc43)nc12 (stereo not drawn) [Example 24]",
    "discrete_label": "Not fulfilled"
  },
  {
    "compound": "c1cnc2c(c1)CCCC2Sc1nc2ccccc2o1 (stereo not drawn) [Example 9]",
    "discrete_label": "Not fulfilled"
  },
  {
    "compound": "Clc1ccc2nc(SC3CCCc4cccnc43)[nH]c2c1 (stereo not drawn) [Example 8]",
    "discrete_label": "Fulfilled"
  },
  {
    "compound": "c1cnc2c(c1)CCCC2Sc1nc2ccccc2s1 (stereo not drawn) [Example 1]",
    "discrete_label": "Fulfilled"
  },
  {
    "compound": "Clc1cc2nc(SC3CCCc4cccnc43)[nH]c2cc1Cl (stereo not drawn) [Example 7]",
    "discrete_label": "Not fulfilled"
  }
]

Asked: Lab note: IC50 threshold 3 µM. Does this compound come in strictly under it? CCOC(=O)Cc1ccc2[nH]c(SC3CCCc4cccnc43)nc2c1 (stereo not drawn) [Example 4]
Given back: Not fulfilled

Asked: Lab note: IC50 threshold 3 µM. Does this compound come in strictly under it? Clc1cc2nc(SC3CCCc4cccnc43)sc2cc1Cl (stereo not drawn) [Example 18]
Given back: Not fulfilled

Asked: Lab note: IC50 threshold 3 µM. Does this compound come in strictly under it? c1cnc2c(c1)CCCC2Sc1nc2ccccc2[nH]1 (stereo not drawn) [Example 3]
Given back: Not fulfilled

Asked: Lab note: IC50 threshold 3 µM. Does this compound come in strictly under it? Cc1ccc2nc(SC3CCCc4cccnc43)[nH]c2c1 (stereo not drawn) [Example 6]
Given back: Not fulfilled

Asked: Lab note: IC50 threshold 3 µM. Does this compound come in strictly under it? FC(F)(F)c1ccc2sc(SC3CCCc4cccnc43)nc2c1 (stereo not drawn) [Example 21]
Given back: Fulfilled

====

system_name: 5-lipoxygenase (Rattus norvegicus, UniProt P12527)
assay_summary: 5-LIPOX: inhibition of Ca++ ionophore (A23187) induced release of 5-lipoxygenase products (leukotriene B4 and 5-HETE) from [14C]arachidonic acid pre-labelled rat peritoneal neutrophils
assay_setup: A23187-induced release of leukotriene B4 and 5-HETE, graphically from dose-response curves, read-out: 5-LIPOX (concentration of test compound causing 50% inhibition of control response)
Criterion: IC50 strictly under 3 µM. Met: class 1. Not met: class 0.

Study these solved cases before continuing.
[
  {
    "compound": "Clc1cccc2sc(SC3CCCc4cccnc43)nc12 (centres unmarked)",
    "system_name": "5-lipoxygenase (Rattus norvegicus, UniProt P12527)",
    "discrete_label": "class 0"
  },
  {
    "compound": "CCOc1ccc2nc(SC3CCCc4cccnc43)sc2c1 (centres unmarked)",
    "system_name": "5-lipoxygenase (Rattus norvegicus, UniProt P12527)",
    "discrete_label": "class 1"
  },
  {
    "compound": "O=[N+]([O-])c1ccc2sc(SC3CCCc4cccnc43)nc2c1 (centres unmarked)",
    "system_name": "5-lipoxygenase (Rattus norvegicus, UniProt P12527)",
    "discrete_label": "class 1"
  },
  {
    "compound": "Clc1ccc2nc(SC3CCCc4cccnc43)sc2c1 (centres unmarked)",
    "system_name": "5-lipoxygenase (Rattus norvegicus, UniProt P12527)",
    "discrete_label": "class 1"
  }
]

Asked: Lab note: IC50 threshold 3 µM. Does this compound come in strictly under it? COc1ccc2nc(SC3CCCc4cccnc43)[nH]c2c1 (centres unmarked)
Given back: class 0

Asked: Lab note: IC50 threshold 3 µM. Does this compound come in strictly under it? O=[N+]([O-])c1ccc2nc(SC3CCCc4cccnc43)sc2c1 (centres unmarked)
Given back: class 0

Asked: Lab note: IC50 threshold 3 µM. Does this compound come in strictly under it? O=[N+]([O-])c1ccc2nc(SC3CCCc4cccnc43)[nH]c2c1 (centres unmarked)
Given back: class 0

====

compounds and their reported IC50
system_name: 5-lipoxygenase (Rattus norvegicus, UniProt P12527)
assay_summary: 5-LIPOX: inhibition of Ca++ ionophore (A23187) induced release of 5-lipoxygenase products (leukotriene B4 and 5-HETE) from [14C]arachidonic acid pre-labelled rat peritoneal neutrophils
assay_setup: A23187-induced release of leukotriene B4 and 5-HETE, graphically from dose-response curves, read-out: 5-LIPOX (concentration of test compound causing 50% inhibition of control response)
Supply the numeric figure in µM, leaving out any unit text.

Take a look at these entries with their results.
[
  {
    "compound": "c1ccc(-c2nc(SC3CCCc4cccnc43)[nH]c2-c2ccccc2)cc1 (stereo not shown)",
    "IC50 (µM)": 3
  },
  {
    "compound": "CCSc1ccc2nc(SC3CCCc4cccnc43)sc2c1 (stereo not shown)",
    "IC50 (µM)": 1.1
  }
]

Next, consider the following compound.
Asked: Could you share what IC50 was measured for c1cnc2c(c1)CCCC2Sc1nccs1 (stereo not shown) , tested on 5-lipoxygenase (Rattus norvegicus, UniProt P12527)?
Given back: 25.1
